target: GLP-1 receptor (human, UniProt P43220 24-463); experiment: cell-based or functional assay
Non-standard residues stand in square brackets, D forms with d. No end group written: not given here. Aib = CC(C)(N)C(=O)O
measurement name: EC50 (cAMP luciferase reporter) (nM)
The figure you give is taken to be in nM; do not add the unit.

binder	experimental result
H[Aib]QGTFTSDYSKYLDEQAAKEFIAWLMNT-NH2 [Glucagon Analog D]	0.02
HSQGTFTSDYSKYLDEEAVRLFIEWLMNT-NH2 (not fully specified (residue 2)) [Glucagon Analog A]	0.009
HSQGTFTSDYSKYLDEQAAKEFIAWLMNT-NH2 (not fully specified (residue 2)) [Glucagon Analog B]	0.014

INPUT: Input H[Aib]QGTFTSDYSKYLDEEAVRLFIEWLMNT-NH2 [Glucagon Analog C] , output reported EC50 (cAMP luciferase reporter).
OUTPUT: 0.006

Data provenance: patent US20120288511A1
